Cited source: the supplement of paper PMC11208160

assay: recombinant barcode read abundance after kanamycin selection (control-corrected) (log10(CPM+1)); higher = more efficient recombination; sequences stand for … in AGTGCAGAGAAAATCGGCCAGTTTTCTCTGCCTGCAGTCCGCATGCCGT…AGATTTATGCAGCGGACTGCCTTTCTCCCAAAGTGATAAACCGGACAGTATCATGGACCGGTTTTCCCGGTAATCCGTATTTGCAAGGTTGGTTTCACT; site = the 11-nt target;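 further: IS621 recombinase and bridge RNA in Escherichia coli cells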
measurement_name: recombinant barcode read abundance (log10)

> print(dat)
                             sequence.string  result.number
 1  GAGGGGTCTTGGGTTCTAACCTGTTGCAC (site GAGGGGTCTGT)           2.81
 2  CTCCGGACTTGGGTTCTAACCTGTTGCCT (site CTCCGGACTAG)           2.02
 3  GAAACTCCTTGGGTTCTAACCTGTTGCCT (site GAAATTCCTAG)         0.0462
 4  GAAGGAGCTTGGGTTCTAACCTGTTGCAG (site ATGCCTCCTAA)         0.0306
 5  GTACGTACTTGGGTTCTAACCTGTTGCCT (site CTACGTACTAG)          0.283
 6  TATGTAGCTTGGGTTCTAACCTGTTGCCT (site TATGTAGCTAG)          0.677
 7  TAAGGGACTTGGGTTCTAACCTGTTGCTA (site TAAGGGACTTA)           2.26
 8  TCGCTAGCTTGGGTTCTAACCTGTTGCCT (site CCGCTAGCTAG)            0.4
 9  AACAGTACTTGGGTTCTAACCTGTTGCCT (site TACAGTACTAG)           0.17
10  GGCTGATCTTGGGTTCTAACCTGTTGCCT (site CGCTGATCTAG)          0.309

* * *

Entries and their measured recombinant barcode read abundance (log10) follow.
assay: recombinant barcode read abundance after kanamycin selection (control-corrected) (log10(CPM+1)); higher = more efficient recombination; sequences stand for … in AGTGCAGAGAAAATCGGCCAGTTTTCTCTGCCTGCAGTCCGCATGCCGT…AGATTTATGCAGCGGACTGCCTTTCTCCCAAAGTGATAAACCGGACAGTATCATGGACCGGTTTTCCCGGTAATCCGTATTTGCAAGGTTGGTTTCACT; site = the 11-nt target
measurement_name: recombinant barcode read abundance (log10)

> print(dat)
                             sequence.string  result.number
 1  TGTAGTCCTTGGGTTCTAACCTGTTGCGT (site TGTAGTCCTAG)          0.293
 2  ATACGTACTTGGGTTCTAACCTGTTGCCT (site TTACGTACTAG)         0.0363
 3  TAGTAAGCTTGGGTTCTAACCTGTTGCTG (site TAGTAAGCTCA)          0.921
 4  TTACTCTCTTGGGTTCTAACCTGTTGCCT (site TCACTCTCTAG)          0.141
 5  TGGCTAGCTTGGGTTCTAACCTGTTGCCT (site TGTCTAGCTAG)         0.0845
 6  ACACACCCTTGGGTTCTAACCTGTTGCGG (site ACACACCCTCC)           2.53
 7  CTCAATTCTTGGGTTCTAACCTGTTGCAT (site CTCAATTCTAT)          0.812
 8  CGTATGTCTTGGGTTCTAACCTGTTGCCT (site AGTATGTCTAG)         0.0814
 9  CTCCGAACTTGGGTTCTAACCTGTTGCAG (site CTCCGAACTCT)           1.12
10  CGTATGTCTTGGGTTCTAACCTGTTGCCT (site CGTATGTCTAG)          0.684
11  GACGCAACTTGGGTTCTAACCTGTTGCAT (site GACGCAACTAT)         0.0836
12  ATGTCTACTTGGGTTCTAACCTGTTGCAG (site ATGTCTACTCT)          0.673
13  AACGCCTCTTGGGTTCTAACCTGTTGCCT (site CACGCCTCTAG)          0.125
14  TAAGGTACTTGGGTTCTAACCTGTTGCTT (site TAAGGTACTAA)           1.26
15  ACCTGTCCTTGGGTTCTAACCTGTTGCCT (site ACCTGACCTAG)          0.269
16  CTACGGACTTGGGTTCTAACCTGTTGCTG (site CTACGCACTCA)          0.206
17  TAAAAGGCTTGGGTTCTAACCTGTTGCCT (site TAAAAGGCTAG)         0.0132
18  GCCTGGGCTTGGGTTCTAACCTGTTGCCG (site GCCGGGGCTCG)          0.114
19  CGAAGCTCTTGGGTTCTAACCTGTTGCCT (site CGAAGCTCTAG)           1.44
20  AATACTACTTGGGTTCTAACCTGTTGCCT (site AATACTACTAG)           1.04
21  GAGGACTCTTGGGTTCTAACCTGTTGCCG (site GAGGACTCTAG)           2.41
22  CGCCCTCCTTGGGTTCTAACCTGTTGCAT (site CGCCGTCCTAT)          0.117
23  AGTCTCCCTTGGGTTCTAACCTGTTGCCT (site AGCCTCCCTAG)         0.0404
24  TAGAATCCTTGGGTTCTAACCTGTTGCAT (site TAGAATCCTCT)          0.102
25  CAGGATGCTTGGGTTCTAACCTGTTGCCT (site CACGATGCTAG)         0.0431
26  ACGTCTCCTTGGGTTCTAACCTGTTGCTG (site ACGACTCCTCA)              0
27  CGATTAGCTTGGGTTCTAACCTGTTGCCG (site ATTCACACTAC)         0.0236
28  GCTGCGCCTTGGGTTCTAACCTGTTGCCT (site GCTGCGCCTAG)           1.05
29  TAGGAACCTTGGGTTCTAACCTGTTGCCT (site CAGGAACCTAG)          0.649
30  TAGCAGACTTGGGTTCTAACCTGTTGCCT (site TAGCAGACTAG)           1.45
31  AGGGCCTCTTGGGTTCTAACCTGTTGCAG (site AGGGCCTCTCT)           2.73
32  CTAATTCCTTGGGTTCTAACCTGTTGCAT (site CTAAATCCTAT)         0.0881
33  GCCAACCCTTGGGTTCTAACCTGTTGCAT (site GCCAACCCTAG)          0.348
34  TATTGTCCTTGGGTTCTAACCTGTTGCCT (site TATAGTACTAG)         0.0216
35  CGCCGCCCTTGGGTTCTAACCTGTTGCCT (site AGCCGCCCTAT)          0.447
36  CACTTGTCTTGGGTTCTAACCTGTTGCCT (site CACTTGCCTAG)         0.0539
37  ACTGCGGCTTGGGTTCTAACCTGTTGCCT (site ACTGCGGCTAG)          0.617
38  AAGACAGCTTGGGTTCTAACCTGTTGCCT (site AAGAGAGCTAG)         0.0524
39  CCTTCCTCTTGGGTTCTAACCTGTTGCCT (site CTTTCCTCTAG)              0
40  GTCTGATCTTGGGTTCTAACCTGTTGCCT (site GTCTGATCTAG)           0.97
41  TGAGTACCTTGGGTTCTAACCTGTTGCTT (site TGAGTTCCTAA)          0.144
42  TCCACATCTTGGGTTCTAACCTGTTGCCT (site TCCACATCTAG)          0.477
